Please respond with reported cAMP accumulation (HTRF): -log10EC50 for every item in the list.
# TESTED TARGET: T1, PTHR1 on CHO-K1/Ga15/PTHR1 cells (UniProt Q03431 27-593, limits assumed)
# T1 sequence (looked up): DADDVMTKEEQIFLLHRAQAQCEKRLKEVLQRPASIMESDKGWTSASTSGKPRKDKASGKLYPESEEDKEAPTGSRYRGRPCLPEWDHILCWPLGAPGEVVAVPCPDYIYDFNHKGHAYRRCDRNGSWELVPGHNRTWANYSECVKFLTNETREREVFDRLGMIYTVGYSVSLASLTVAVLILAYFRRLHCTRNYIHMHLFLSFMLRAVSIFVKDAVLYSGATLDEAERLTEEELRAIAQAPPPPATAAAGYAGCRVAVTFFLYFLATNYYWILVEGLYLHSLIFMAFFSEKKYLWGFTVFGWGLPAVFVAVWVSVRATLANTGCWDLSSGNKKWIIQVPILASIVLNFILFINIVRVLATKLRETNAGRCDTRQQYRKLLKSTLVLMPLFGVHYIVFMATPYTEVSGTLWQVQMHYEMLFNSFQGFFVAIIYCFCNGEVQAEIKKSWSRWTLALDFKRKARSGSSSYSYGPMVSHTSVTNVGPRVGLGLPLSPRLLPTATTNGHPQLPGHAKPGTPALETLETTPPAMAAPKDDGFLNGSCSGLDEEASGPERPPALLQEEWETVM
# EXPERIMENTAL DETAILS: cell-based or functional assay

In: Answer with the recorded cAMP accumulation (HTRF): -log10EC50 of AVAEIQLMHQRAKWKLDLELAVSLRKILEDVY [R2-27] only.
Out: -7.91 -log10EC50 (as headed)

In: Answer with the recorded cAMP accumulation (HTRF): -log10EC50 of AVAEIQLMHQRAKWDVLIELAKLLAELLRRYH [R2-47] only.
Out: -9.23 -log10EC50 (as headed)

In: Answer with the recorded cAMP accumulation (HTRF): -log10EC50 of AVAEIQLMHQRAKWELEFELFREFLKLLVDFF [I3 (R1-97)] only.
Out: -7.23 -log10EC50 (as headed)

In: Answer with the recorded cAMP accumulation (HTRF): -log10EC50 of AVAEIQLMHQRAKWELLEELLKILLELLKEYI [R2-38] only.
Out: -6.91 -log10EC50 (as headed)

In: Answer with the recorded cAMP accumulation (HTRF): -log10EC50 of AVAEIQLMHQRAKWKILEELLKILIDLLKQYI [R2-48] only.
Out: -7.19 -log10EC50 (as headed)

In: Answer with the recorded cAMP accumulation (HTRF): -log10EC50 of GIAVITLMDLRAYLRAEYELREMLLRLLEEIF [R2-13] only.
Out: -5.31 -log10EC50 (as headed)

In: Answer with the recorded cAMP accumulation (HTRF): -log10EC50 of GIAVITLMVLRALLELQEIGRKITLELLKEYI [R2-51] only.
Out: -9.98 -log10EC50 (as headed)

In: Answer with the recorded cAMP accumulation (HTRF): -log10EC50 of GVSMLQIMHDLAVIRAEYELREMLLRLLEEIF [R2-4] only.
Out: -5.87 -log10EC50 (as headed)

In: Answer with the recorded cAMP accumulation (HTRF): -log10EC50 of AVATIQLMTDIAKIRAEYELREMLLRLLEEIF [R2-6] only.
Out: 3.88 -log10EC50 (as headed)

In: Answer with the recorded cAMP accumulation (HTRF): -log10EC50 of AVAEIQLMHQRAKWLEELKLKDDLRKILEDVY [R2-30] only.
Out: -7.1 -log10EC50 (as headed)

In: Answer with the recorded cAMP accumulation (HTRF): -log10EC50 of AVAEIQLMHQRAKWIQDARRRAFLHKLIAEIH [LA-PM-FL (R1-81)] only.
Out: -7.88 -log10EC50 (as headed)

In: Answer with the recorded cAMP accumulation (HTRF): -log10EC50 of AVAEIQLMHQRAKWRLEIELLKKLKEILKDVY [R2-34] only.
Out: -6.98 -log10EC50 (as headed)

In: Answer with the recorded cAMP accumulation (HTRF): -log10EC50 of AVAEIQLMHQRAKWGLDLELRARLREILRDVY [R2-31] only.
Out: -14 -log10EC50 (as headed)

In: Answer with the recorded cAMP accumulation (HTRF): -log10EC50 of SVMMIQVMHDLAKIRAEYELREMLLRLLEEIF [R2-8] only.
Out: -7.5 -log10EC50 (as headed)

In: Answer with the recorded cAMP accumulation (HTRF): -log10EC50 of AVAEIQLMHQRAKWLNELRLKEEMRKILEDVY [R2-33] only.
Out: -7.1 -log10EC50 (as headed)

In: Answer with the recorded cAMP accumulation (HTRF): -log10EC50 of AVAEIQLMHQRAKWSLREELEKLLKELLKEYI [R2-44] only.
Out: -10.4 -log10EC50 (as headed)

In: Answer with the recorded cAMP accumulation (HTRF): -log10EC50 of GVAEIQLMHDIPVIRAEYELREMLLRLLEEIF [R2-3] only.
Out: -4.93 -log10EC50 (as headed)

In: Answer with the recorded cAMP accumulation (HTRF): -log10EC50 of GVAMLQIMHDLAKIKQELELKDSMKKILEDVL [R2-50] only.
Out: -6.24 -log10EC50 (as headed)
